# measurement target: full-length recombinant human NEK7 (Homo sapiens, UniProt Q8TDX7)
# Construct: full-length recombinant human NEK7; GST (N)
# Sequence (Q8TDX7 whole entry): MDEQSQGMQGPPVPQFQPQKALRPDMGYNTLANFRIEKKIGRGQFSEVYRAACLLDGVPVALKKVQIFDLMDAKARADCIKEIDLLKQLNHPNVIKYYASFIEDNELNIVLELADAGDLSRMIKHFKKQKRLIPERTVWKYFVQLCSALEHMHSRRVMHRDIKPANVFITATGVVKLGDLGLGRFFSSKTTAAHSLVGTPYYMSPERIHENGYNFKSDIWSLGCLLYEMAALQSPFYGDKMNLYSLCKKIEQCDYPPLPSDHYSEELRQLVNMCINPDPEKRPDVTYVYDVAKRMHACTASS
# protocol description: NEK7 enzymatic assay
# particulars: casein substrate, [32P]-ATP, radiometric P81 filter assay
assay readout: IC50

Problem: Note IC50 for the molecule shown: Cc1c[nH]c2nccc(Oc3ccc(NC(=O)Nc4ccc(OC5CCN(C)CC5)c(C(F)(F)F)c4)c(F)c3)c12
Result: < 0.2 µM

Problem: Please give measured IC50 of the following entry: CN1CCN(Cc2ccc(NC(=O)Nc3ccc(Oc4ccnc5[nH]cc(Cl)c45)cc3F)cc2C2CC2)CC1
Result: 0.5 to 2 µM

Problem: Give the measured IC50 for CN1CCN(Cc2cc(NC(=O)Nc3ccc(Oc4ccnc5[nH]cc(Cl)c45)cc3F)cc(C(F)(F)F)c2)CC1
Result: 0.5 to 2 µM

Problem: Dear colleague, please send me the reported IC50 for CC(=O)N1CCC(Oc2ccc(NC(=O)Nc3ccc(Oc4ccnc5[nH]cc(Cl)c45)cc3F)cc2C(F)(F)F)CC1 when you can.
Result: > 2 µM

Problem: # return recorded IC50 for entry CN1CCCN(Cc2ccc(NC(=O)Nc3ccc(Oc4ccnc5[nH]cc(Cl)c45)cc3F)cc2C(F)(F)F)CC1
Result: 0.5 to 2 µM

Problem: Identify measured IC50 associated with CN1CCN(Cc2ncc(NC(=O)Nc3ccc(Oc4ccnc5[nH]cc(Cl)c45)cc3F)cc2C(F)(F)F)CC1
Result: 0.5 to 2 µM

Problem: Tell me its IC50 given Cc1c[nH]c2nccc(Oc3ccc(NC(=O)Nc4ccc(CN5CCN(C)CC5)c(C(F)(F)F)c4)c(F)c3)c12 as the entry.
Result: 0.2 to 0.5 µM

====

Could you please report measured IC50 for the items listed next?
# measurement target: full-length recombinant human NEK7 (Homo sapiens)
# Construct: full-length recombinant human NEK7; GST (N)
# protocol description: NEK7 enzymatic assay
# particulars: casein substrate, [32P]-ATP, radiometric P81 filter assay

Problem: Write down the reported IC50 (system: full-length recombinant human NEK7 (Homo sapiens)) of CN1CCN(C2CC(F)(F)c3cc(NC(=O)Nc4ccc(Oc5ccnc6[nH]cc(Cl)c56)cc4F)ccc32)CC1 (stereo not drawn)
Result: > 2000 nM

Problem: Determine reported IC50 for CN1C[C@@H]2CN(Cc3ccc(NC(=O)Nc4ccc(Oc5ccnc6[nH]cc(Cl)c56)cc4F)cc3C(F)(F)F)C[C@@H]2C1 ; test system: full-length recombinant human NEK7 (Homo sapiens).
Result: 200 to 500 nM

Problem: # assay system full-length recombinant human NEK7 (Homo sapiens): give IC50 of O=C(Nc1ccc(CN2CCN(CCF)CC2)c(C(F)(F)F)c1)Nc1ccc(Oc2ccnc3[nH]cc(Cl)c23)cc1F
Result: 500 to 2000 nM

Problem: Under full-length recombinant human NEK7 (Homo sapiens): report IC50 of CCN1CCC(Oc2ccc(NC(=O)Nc3ccc(Oc4ccnc5[nH]cc(Cl)c45)cc3F)cc2C(F)(F)F)CC1 .
Result: < 200 nM

Problem: State the measured IC50 (full-length recombinant human NEK7 (Homo sapiens)) of O=C(Nc1ccc(CN2CCC(F)(F)CC2)c(C(F)(F)F)c1)Nc1ccc(Oc2ccnc3[nH]cc(Cl)c23)cc1F
Result: > 2000 nM

Problem: State, for full-length recombinant human NEK7 (Homo sapiens), measured IC50 of the compound listed here: Cc1c[nH]c2nccc(Oc3ccc(NC(=O)Nc4cnc(OC5CCN(C)CC5)c(C(F)(F)F)c4)c(F)c3)c12
Result: < 200 nM

====

# measurement target: full-length recombinant human NEK7 (Homo sapiens)
# Construct: full-length recombinant human NEK7; GST (N)
# protocol description: NEK7 enzymatic assay
# particulars: casein substrate, [32P]-ATP, radiometric P81 filter assay
Provide the reported IC50 of each item.

Problem: Provide IC50, system full-length recombinant human NEK7 (Homo sapiens), entry O=C(Nc1ccc(CN2CCNCC2)c(C(F)(F)F)c1)Nc1ccc(Oc2ccnc3[nH]cc(Cl)c23)cc1F
Result: 200 to 500 nM

Problem: Name the value of IC50 reported for CN1CCN(Cc2ccc(NC(=O)Nc3ccc(Oc4ccnc5[nH]cc(Cl)c45)cn3)cc2C(F)(F)F)CC1 when tested on full-length recombinant human NEK7 (Homo sapiens).
Result: < 200 nM

Problem: Give reported IC50 for CN1CCC(Oc2ncc(NC(=O)Nc3ccc(Oc4ccnc5[nH]cc(Cl)c45)cc3F)cc2C(F)(F)F)CC1 (full-length recombinant human NEK7 (Homo sapiens))
Result: 200 to 500 nM

Problem: # lookup: full-length recombinant human NEK7 (Homo sapiens) IC50, key = CN1CCC(=Cc2ccc(NC(=O)Nc3ccc(Oc4ccnc5[nH]cc(Cl)c45)cc3F)cc2C(F)(F)F)CC1
Result: 500 to 2000 nM

Problem: Give IC50; test system full-length recombinant human NEK7 (Homo sapiens); compound Cc1cn(-c2ccc(NC(=O)Nc3ccc(Oc4ccnc5[nH]cc(Cl)c45)cc3F)cc2C(F)(F)F)cn1
Result: > 2000 nM

Problem: Quote full-length recombinant human NEK7 (Homo sapiens) IC50 for entry CN(C)C1CCN(Cc2ccc(NC(=O)Nc3ccc(Oc4ccnc5[nH]cc(Cl)c45)cc3F)cc2C(F)(F)F)CC1 .
Result: > 2000 nM

Problem: Report the value of IC50 obtained on full-length recombinant human NEK7 (Homo sapiens) for CN1CCC(Oc2ccc(NC(=O)Nc3ccc(Oc4ccnc5[nH]cc(Cl)c45)cc3F)cc2C(F)(F)F)CC1 .
Result: 200 to 500 nM

====

# measurement target: full-length recombinant human NEK7 (Homo sapiens, UniProt Q8TDX7)
# Construct: full-length recombinant human NEK7; GST (N)
# protocol description: NEK7 enzymatic assay
# particulars: casein substrate, [32P]-ATP, radiometric P81 filter assay
assay readout: IC50

Problem: Identify measured IC50 corresponding to O=C(Nc1ccc(OC2CCN(C3COC3)CC2)c(C(F)(F)F)c1)Nc1ccc(Oc2ccnc3[nH]cc(Cl)c23)cc1F [Example I-48]
Result: > 2000 nM

Problem: Fill in IC50 for record CC(=O)N1CCN(Cc2ccc(NC(=O)Nc3ccc(Oc4ccnc5[nH]cc(Cl)c45)cc3F)cc2C(F)(F)F)CC1 [Example I-49]
Result: > 2000 nM

Problem: Indicate its recorded IC50; the molecule in question is CN1CCN(Cc2ccc(NC(=O)Nc3ccc(Oc4ccnc5[nH]cc(Cl)c45)cc3F)cc2OC(F)(F)F)CC1 [Example I-62]
Result: < 200 nM

Problem: Retrieve IC50 measured for CN1CCN(Cc2ccc(NC(=O)Nc3ccc(Oc4ccnc5[nH]cc(Cl)c45)cc3F)cc2Cl)CC1 [Example I-30] and print it.
Result: 500 to 2000 nM

Problem: Please supply the value of reported IC50 for the item CN1CCN(Cc2ccc(NC(=O)Nc3ccc(Oc4ccnc5[nH]cc(Cl)c45)cc3F)cc2C(F)(F)F)CC12CC2 [Example I-60]
Result: > 2000 nM

Problem: Specify measured IC50 for CN1CCC(Oc2ccc(NC(=O)Nc3ccc(Oc4ccnc5[nH]cc(Cl)c45)cc3F)cc2C(F)(F)F)C(F)C1 (stereo not shown) [Example I-66] .
Result: 500 to 2000 nM

Problem: For CN1CCN(Cc2ccc(NC(=O)Nc3ccc(Oc4ccnc5[nH]cc(Cl)c45)cc3F)cc2C(F)(F)F)C2(CC2)C1 [Example I-20] , write its IC50.
Result: > 2000 nM
